Biological target: AuroraA-TPX2 (Homo sapiens)
Construct: 20 μL of AuroraA-TPX2 KD GST for a final volume of about 41 μL; GST
Sequence (O14965 133-383 limits assumed): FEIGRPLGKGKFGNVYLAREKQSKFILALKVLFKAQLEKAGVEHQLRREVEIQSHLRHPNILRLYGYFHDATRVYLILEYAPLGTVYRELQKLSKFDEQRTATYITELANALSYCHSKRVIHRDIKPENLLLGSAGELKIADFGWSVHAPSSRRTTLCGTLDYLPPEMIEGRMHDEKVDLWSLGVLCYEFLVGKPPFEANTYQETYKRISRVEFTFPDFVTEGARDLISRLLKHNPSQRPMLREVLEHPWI
Sequence (Q9ULW0 1-43 partner limits assumed): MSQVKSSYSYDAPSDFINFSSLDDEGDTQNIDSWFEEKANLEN
Assay: AuroraA-TPX2 Homogeneous Time Resolved Fluorescent (HTRF) kinase assay
Type: biochemical
Conditions: average; read-out: AurA_IC50_IP (uM Avg)
Procedure: AuroraA-TPX2-Homogeneous Time Resolved Fluorescent (HTRF) Kinase Assay: The Aurora-A HTRF assay begins with Aurora-A in the presence of ATP phosphorylating the biotinylated peptide PLK. The reaction incubates for about 120 min. […] The assay is quenched and stopped with 160 μL of detection reagent. […] Added to this buffer prior to reading is Steptavidin allophycocyanin (SA-APC) at a final conc in the assay of 0.0005 mg/mL, and europilated anti-phosphoPLK Ab (Eu-anti-PLK) at a final conc of 0.02 nM. […]
Measured Metric: IC50 (µM)

Reference set (5 entries):
1. Cc1csc(-c2nnc(Nc3ccc(Sc4ccnc5ccc(=O)[nH]c45)cc3)c3ccccc23)c1 0.019
2. O=C(c1cc2nccc(Oc3ccc(Nc4nnc(-c5ccc(Cl)cc5)c5ccccc45)cc3)c2s1)N1CCOCC1 0.023
3. c1ccc2c(-c3ccc4c(c3)CCO4)nnc(Nc3ccc(Oc4ccnc5ccsc45)cc3)c2c1 0.033
4. COc1ccc(F)cc1-c1nnc(Nc2ccc(Oc3ccnc4cc(C#N)ccc34)cc2)c2ccccc12 0.142
5. COc1cc(F)cc2nccc(Sc3ccc(Nc4nnc(-c5cc(C)cs5)c5ccccc45)cc3)c12 0.585

[a] COc1cc2nccc(Oc3ccc(Nc4nnc(-c5ccc(C)cn5)c5ccccc45)cc3)c2cn1
[b] Cc1noc(-c2cc3nccc(Oc4ccc(Nc5nnc(-c6ccc(Cl)cc6)c6ccccc56)cc4)c3s2)n1
Kindly identify the item with the lower IC50 figure among these two: a and b Answer with the label corresponding to your selection.
a
(a: 0.035 µM, b: 0.087 µM)

---

target: AuroraB (Homo sapiens, UniProt Q96GD4); construct: 20 μL of AuroraB FL H is for a final volume of 41 μL; His; assay: AuroraB Homogeneous Time Resolved Fluorescent (HTRF) kinase assay; assay type: biochemical; details: average; read-out: AurB_IC50_IP (uM Avg)
Sequence (Q96GD4 whole entry): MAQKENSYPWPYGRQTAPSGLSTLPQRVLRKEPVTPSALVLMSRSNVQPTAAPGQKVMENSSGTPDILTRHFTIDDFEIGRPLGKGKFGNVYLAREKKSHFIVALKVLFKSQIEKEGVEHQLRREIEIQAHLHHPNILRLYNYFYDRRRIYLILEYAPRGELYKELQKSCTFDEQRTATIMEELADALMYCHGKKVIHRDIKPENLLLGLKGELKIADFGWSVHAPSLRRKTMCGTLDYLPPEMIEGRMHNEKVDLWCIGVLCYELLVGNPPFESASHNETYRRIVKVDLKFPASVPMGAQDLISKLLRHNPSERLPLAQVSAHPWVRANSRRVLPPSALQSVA
Measured Metric: IC50 (µM)

Compound	IC50, µM
COc1cnc2c(Oc3ccc(Nc4nnc(-c5ccccc5Cl)c5ccccc45)cc3)ccnc2c1 [compound 546]	0.135

[I] FC1(F)Oc2ccc(-c3nnc(Nc4ccc(Oc5ccnc6ccsc56)cc4)c4ccccc34)cc2O1 [compound 293]
[II] Cc1noc(-c2cc3nccc(Sc4ccc(Nc5nnc(-c6ccccc6)c6ccccc56)cc4)c3s2)n1 [compound 318]
Kindly identify the item with the lower IC50 figure among these two: I and II Answer with the label corresponding to your selection.
I
(I: 0.006 µM, II: 0.07 µM)

[P] COc1cnc2c(Oc3ccc(Nc4nnc(-c5cc6ccccc6n5C)c5ccccc45)cc3)ccnc2c1 [compound 143]
[Q] Cc1ccc(-c2nnc(Nc3ccc(Sc4ccnc5cccnc45)cc3)c3ccccc23)cn1 [compound 553]
Kindly identify the item with the lower IC50 figure among these two: P and Q Answer with the label corresponding to your selection.
Q
(Q: 0.005 µM, P: 0.009 µM)

[P] COc1cnc2c(Oc3ccc(Nc4nnc(-c5ccc(Cl)nc5)c5ccccc45)cc3)ccnc2c1 [compound 235]
[Q] CN(c1ccc(Oc2ccnc3ccc(=O)[nH]c23)cc1)c1nnc(-c2ccc(Cl)cc2)c2ccccc12 [compound 500]
Kindly identify the item with the lower IC50 figure among these two: P and Q Answer with the label corresponding to your selection.
P
